System: Sam68 (KHDRBS1)
ASSAY_OVERVIEW: Sam68 small-molecule binders, primary screen, biochemical, small-molecule microarray, 635 nm fluorescence (AID 1125);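 note: score merges 667 nm channel intensity with signal to noise over triplicate slides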
MEASUREMENT_PARAMETERS: small-molecule microarray binding, higher = more signal
Task for the reader: assign each of the following compounds its reported composite z-score.
The reply should be a number, written without any unit.

Query: Write down the reported composite z-score of COCCOC(=O)N1C(=O)[C@@]2(c3cc(C#CCCO)ccc31)[C@H](C(=O)N1CCCCCCC1)[C@H]1C(=O)O[C@H](c3ccccc3)[C@H](c3ccccc3)N1[C@@H]2c1ccc(OCCO)cc1 , test system: Sam68 (KHDRBS1).
Response: 1.3

Query: Now the same for CN(C)C(=O)[C@@]1(CCS(=O)(=O)c2ccccc2)COC(c2ccc(OCCCO)cc2)=N1
Response: 0.203

Query: Now the same for COC(=O)C(CC#Cc1ccc2c(c1)[C@]1(C(=O)N2)[C@H](c2ccc(OCCO)cc2)N2[C@H](c3ccccc3)[C@H](c3ccccc3)OC(=O)[C@H]2[C@@H]1C(=O)N1CCc2cc(OC)c(OC)cc2C1)C(=O)OC
Response: 1.31
